biological target: Tomm6 (Mus musculus, UniProt Q9CQN3); construct: hippocampi were isolated from 5-10 aged Tg2576 mice, pulverized under liquid nitrogen and solubilized; from tissue; host or cells: hippocampus of Tg2576 mice; experiment: Immunoblot detection of hippocampal Tomm6 protein in treated Tg2576 mice; format: in vivo; details: Tg2576 AD mice subjected to the CUMS protocol, treated during CUMS (10 mg/kg/d)
Sequence (Q9CQN3 whole entry): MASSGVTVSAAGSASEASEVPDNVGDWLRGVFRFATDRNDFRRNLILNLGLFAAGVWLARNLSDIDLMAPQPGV
Measurement Label: hippocampal Tomm6 protein content

• Cc1nc(CO)cc(-c2ccc(Cl)cc2)c1C(N)=O = significantly higher
• Cc1nc(CO)cc(-c2ccc(F)cc2)c1C(N)=O [Compound-10F] = significantly higher
